INHIBITION reference
# System: Plasmodium berghei
# experimental.details: Screen against P. berghei liver stage (PbLuc), transformed with Luciferase, at 10uM
# Assay type: functional, HepG2
# particulars: tested at 10 uM
Among all 69,000 compounds or so, about 8,600 (12%) showed an effect of 50% or more. Shown is part of a subset that was picked to be rich in strong results.
Reply numerically in %, unit not repeated.

// known answers, use as guide
compound: O=c1ccc2c(n1CCN1CCCC1)CCN(c1ncccn1)CC2
endpoint.unit: %
INHIBITION: 29.5
--
compound: Cc1nccn1CCN(C)c1nc(-c2cccnc2)nc2c1CCNC2
endpoint.unit: %
INHIBITION: -1.25
--
compound: Cc1cc(CN(C)c2nc(-c3ccco3)nc3c2CCN(C)CC3)on1
endpoint.unit: %
INHIBITION: 30

Request: // lookup INHIBITION for Cc1nonc1CN(C)c1nc(-c2cccnc2)nc2c1CCNC2
Result: 81.1

Request: Name the reported INHIBITION value associated with the compound CN(CC(O)CO)c1nc(-c2cccnc2)nc2c1CCNC2 (stereo unspecified)
Result: 26.1

Request: I would be grateful if you could share the reported INHIBITION for CC(=O)N1CCN(c2cc(C3CCNCC3)ccn2)CC1 .
Result: 7.19

* * *

# System: Plasmodium berghei
# experimental.details: Screen against P. berghei liver stage (PbLuc), transformed with Luciferase, at 10uM
# Assay type: functional, HepG2
# particulars: tested at 10 uM
The campaign covered roughly 69,000 compounds. About 8,600 (12%) showed an effect of 50% or more. Many of the other results were omitted from the sample, so strong results are more common in it than they were.
property.label: INHIBITION (%)
# unit: % | format: bare number

Request: Consider the molecule O=C(C1CCOCC1)N(CCc1ccccc1)C1CCOC1 (configuration not stated) and give its measured INHIBITION.
Result: -5.33

* * *

INHIBITION: recorded values
# Tested on: Plasmodium berghei
# experimental.details: Screen against P. berghei liver stage (PbLuc), transformed with Luciferase, at 10uM
# Format: functional, HepG2
# particulars: tested at 10 uM
About 8,600 (12%) of roughly 69,000 compounds showed an effect of 50% or more. This excerpt belongs to a sample that is enriched for strong results.
Give the value in % but do not write % after it.

These solved cases illustrate the format of a correct answer.
molecule: CCc1ccc(C2COCCN2C(=O)Nc2ccc(C(N)=O)c(Cl)c2)o1 (stereo not given)
property.label: INHIBITION
endpoint.unit: %
observed: 78.3

molecule: Cc1ccc(C2(CN(C)Cc3sccc3C)CCNCC2)nc1
property.label: INHIBITION
endpoint.unit: %
observed: 6.66

molecule: Cc1cnn(C2CN(Cc3nc(-c4ccccc4C)no3)C2)c1
property.label: INHIBITION
endpoint.unit: %
observed: 89.5

molecule: Nc1ccnc(CNc2cc(F)ccc2OCC2CCCO2)n1 (stereo not given)
property.label: INHIBITION
endpoint.unit: %
observed: 54.4

Request: Entry Cc1cnn(C2CN(C(C)c3nc(-c4ccccc4)no3)C2)c1 (stereo not given) : reported INHIBITION = ?
Result: 84

Request: GET /values?readout=INHIBITION&item= CCCOc1ccc(CNCCn2cccn2)cc1
Result: 30.5

Request: Param item = CCc1noc(CNc2cc(F)ccc2OCC2CCCO2)n1 (stereo not given) ; retrieve measured INHIBITION.
Result: 1.81

Request: INHIBITION for Cc1ccn2c(F)c(C(=O)N3CCC4(CCC(=O)N(C)C4)CC3)nc2c1 ?
Result: 20.5

Request: Can you share its INHIBITION? I mean this molecule: CCc1ccc(C2COCCN2C(=O)Nc2cc(C)on2)o1 (stereo not given)
Result: -107

Request: # get_value(readout='INHIBITION', item= CCc1ccc(C2COCCN2C(=O)Nc2cccc(C(C)=O)c2)o1 (stereo not given) )
Result: -2.9

Request: Param item = CCc1noc(CNc2ccc(F)cc2OCC2CC2)n1 ; retrieve measured INHIBITION.
Result: -29.9

Request: Any idea what its INHIBITION is? The molecule is CCCn1nnnc1COC(=O)C1COc2ccc(Cl)cc2C1 (stereo not given)
Result: 32.3

Request: Requested read-out: INHIBITION. Entry: O=C(CNc1cc(F)ccc1OCC1CCCO1)N1CCOCC1 (stereo not given)
Result: 19.5

Request: Quick one: INHIBITION of Fc1ccc(OCC2CCCO2)c(NCc2cn3cccnc3n2)c1 (stereo not given) ?
Result: 59.3

Request: Query (molecule): CCCc1noc(C(C)N2CC(n3cccn3)C2)n1 (stereo not given) ; field requested: INHIBITION
Result: 8.77

Request: INHIBITION for CC(c1nc(-c2ccccc2)no1)N1CC(n2cccn2)C1 (stereo not given) ?
Result: -66.5

Request: Data request, read-out INHIBITION, for COc1ccc(-c2nc(CN3CC(n4cccn4)C3)no2)cc1
Result: 25.8

Request: Which value of INHIBITION has been reported for O=C(NCCNC(=O)C1CCCCC1)NCCn1cccc1 in the records?
Result: 18.6

Request: Consider the molecule shown here: Cc1cnn(CC2CCCCN2C(=O)c2ccc3c(c2)nnn3C)c1 (stereo not given) What is its recorded INHIBITION?
Result: -17.8

Request: Reported INHIBITION, molecule Cc1ccc(C2COCCN2C(=O)c2ccc(C#N)cc2)o1 (stereo not given) : ____
Result: 32

Request: Entry under review: Cc1ccc(-c2noc(Cn3nc(C(N)=O)ccc3=O)n2)cc1 . Reported INHIBITION?
Result: 28.2

Request: Return reported INHIBITION; argument: O=C(Cn1ccc2ccc(Br)cc21)NCc1ccc(C(=O)O)cc1
Result: -30.8

Request: I have this molecule here, CC(C)(C)c1nnc(CNc2cc(F)ccc2OCC2CCCO2)o1 (stereo not given) , and I need its recorded INHIBITION.
Result: 35.5

Request: Entry CCc1ccc(C2COCCN2C(=O)NCc2cccc(C#N)c2)o1 (stereo not given) : reported INHIBITION = ?
Result: -92.8

Request: Given the molecule COCc1nc(CN2CC(Cc3ccccc3)CC2=O)no1 (stereo not given) , what is its reported INHIBITION?
Result: -37.2
